All values here come from PubChem BioAssay AID1963871.

Listing: IC50 of selected molecules
System: KRAS-mutant PDC multicell tumor spheroid viability
PROTOCOL_DESCRIPTION: Anticancer human tumor 521955-158-R2-J5-PDC patient-derived pancreatic carcinoma cell line growth inhibition [KRAS2]
CONDITION_DESCRIPTION: curve of first compound; second compound 0.1 µM
Return type: number; implicit unit nM.

INSERT INTO results (molecule, measured_quantity, unit_string, endpoint_value) VALUES
  ('CC1COCCN1c1cc(-c2ccnn2C)c2ccnc(-c3ccn[nH]3)c2n1 (stereo not given) + CC1OCC2(CCN(c3cnc(Sc4ccnc(N)c4Cl)c(N)n3)CC2)C1N', 'IC50', 'nM', 18.3);

Exercise: Value lookup for IC50; key = CC(C)n1nc(-c2ccc3oc(N)nc3c2)c2c(N)ncnc21 + COc1cc2nc(C)nc(NC(C)c3cc(N)cc(C(F)(F)F)c3)c2cc1OC1CCOC1
Solution: 9.15

Exercise: Reported IC50, molecule COc1cc2nccc(Oc3ccc(NC(=O)C4(C(=O)Nc5ccc(F)cc5)CC4)cc3)c2cc1OC + C=CC(=O)N1CCN(c2nc(OCC3CCCN3C)nc3c2CCN(c2cccc4cccc(C)c24)C3)CC1CC#N : ____
Solution: 7660

Exercise: Endpoint output: IC50 of CC(=O)Nc1cccc(-n2c(=O)n(C3CC3)c(=O)c3c(Nc4ccc(I)cc4F)n(C)c(=O)c(C)c32)c1 + C=CC(=O)N1CCN(c2nc(OCC3CCCN3C)nc3c2CCN(c2cccc4cccc(C)c24)C3)CC1CC#N . Value?
Solution: 0.289

Exercise: What measured IC50 goes with COC(=O)c1ccc2c(C(=Nc3ccc(N(C)C(=O)CN4CCN(C)CC4)cc3)c3ccccc3)c(O)[nH]c2c1 + COc1cc2nc(C)nc(NC(C)c3cc(N)cc(C(F)(F)F)c3)c2cc1OC1CCOC1 ?
Solution: 2010

---

Tested on: KRAS-mutant PDC multicell tumor spheroid viability
PROTOCOL_DESCRIPTION: Anticancer human tumor 521955-158-R2-J5-PDC cell line growth inhibition [KRAS2]; active = viability on the fitted dose curve at most 10% of control; inactive = the rest;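 further: viability read after seven days of drug exposure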
CONDITION_DESCRIPTION: second compound 10 µM; first compound 3.16 µM
Valid outcomes are listed here; reply with one: 1 (active), 0 (inactive)

Example results:
INSERT INTO measurements (molecule, class_label) VALUES
  ('CC1COCCN1c1cc(-c2ccnn2C)c2ccnc(-c3ccn[nH]3)c2n1 (stereo not given) + C=CC(=O)N1CCN(c2nc(=O)n(-c3c(C)ccnc3C(C)C)c3nc(-c4c(O)cccc4F)c(F)cc23)C(C)C1', 0),
  ('CCNC(=O)CC1N=C(c2ccc(Cl)cc2)c2cc(OC)ccc2-n2c(C)nnc21 (stereo not given) + CNCc1ccccc1-c1csc(C(C)Nc2nc(C)nc3cc(OC)c(OC)cc23)c1', 1),
  ('O=C(c1cc(Cc2n[nH]c(=O)c3ccccc23)ccc1F)N1CCN(C(=O)C2CC2)CC1 + CC1OCC2(CCN(c3cnc(Sc4ccnc(N)c4Cl)c(N)n3)CC2)C1N', 0),
  ('COc1cc(Nc2ncc3c(n2)-c2ccc(Cl)cc2C(c2c(F)cccc2OC)=NC3)ccc1C(=O)O + CC1OCC2(CCN(c3cnc(Sc4ccnc(N)c4Cl)c(N)n3)CC2)C1N', 0);

Continue with the molecule presented below.
Exercise: Call for entry COC(=O)c1ccc2c(C(=Nc3ccc(N(C)C(=O)CN4CCN(C)CC4)cc3)c3ccccc3)c(O)[nH]c2c1 + CC1OCC2(CCN(c3cnc(Sc4ccnc(N)c4Cl)c(N)n3)CC2)C1N :
Solution: 1
